target: JAK1 (Homo sapiens); construct: endogenous in cells; test: Kinobeads assay, JAK1; settings: mixed Molt4/Ramos lysate, read-out: Inhibition values (IC50) JAK1
Sequence (P23458 whole entry): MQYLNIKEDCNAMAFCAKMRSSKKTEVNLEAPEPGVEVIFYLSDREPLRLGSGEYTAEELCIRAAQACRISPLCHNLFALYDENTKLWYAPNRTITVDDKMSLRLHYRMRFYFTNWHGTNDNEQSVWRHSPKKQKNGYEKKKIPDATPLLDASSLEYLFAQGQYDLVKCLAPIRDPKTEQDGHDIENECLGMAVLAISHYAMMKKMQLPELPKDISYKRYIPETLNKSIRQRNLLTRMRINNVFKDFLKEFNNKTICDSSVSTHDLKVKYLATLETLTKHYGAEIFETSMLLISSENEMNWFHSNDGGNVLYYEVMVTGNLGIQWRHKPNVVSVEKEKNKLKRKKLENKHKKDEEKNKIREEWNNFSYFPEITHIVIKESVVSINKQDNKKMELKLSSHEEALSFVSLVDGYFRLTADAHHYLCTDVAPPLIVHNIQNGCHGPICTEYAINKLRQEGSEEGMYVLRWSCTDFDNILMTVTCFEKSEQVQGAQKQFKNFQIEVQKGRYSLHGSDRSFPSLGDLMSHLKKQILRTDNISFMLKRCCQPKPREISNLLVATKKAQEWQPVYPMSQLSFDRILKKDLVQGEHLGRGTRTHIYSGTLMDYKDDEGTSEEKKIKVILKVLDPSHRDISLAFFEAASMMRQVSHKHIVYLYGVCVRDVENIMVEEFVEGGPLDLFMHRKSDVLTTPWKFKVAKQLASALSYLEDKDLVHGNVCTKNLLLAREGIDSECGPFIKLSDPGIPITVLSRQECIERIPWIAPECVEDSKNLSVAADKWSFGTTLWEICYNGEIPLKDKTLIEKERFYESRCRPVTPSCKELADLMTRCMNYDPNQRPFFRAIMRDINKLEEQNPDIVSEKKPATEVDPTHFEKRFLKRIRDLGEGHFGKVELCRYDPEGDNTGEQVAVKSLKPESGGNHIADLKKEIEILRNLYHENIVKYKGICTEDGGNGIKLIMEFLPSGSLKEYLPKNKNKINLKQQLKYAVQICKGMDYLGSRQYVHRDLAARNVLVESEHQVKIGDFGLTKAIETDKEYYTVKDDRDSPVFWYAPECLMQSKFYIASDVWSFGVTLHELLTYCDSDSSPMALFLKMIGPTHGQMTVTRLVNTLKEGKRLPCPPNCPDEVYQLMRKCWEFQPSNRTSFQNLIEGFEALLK
pIC50: −log10 of the molar value.
Below, each of the molecules is paired with its reported pIC50 value.

Look over these answered cases.
{"columns": ["molecule", "experimental_result"],
 "data": [
  ["Cn1cc(Nc2ncc(F)c(N[C@H](CO)c3cc(F)cc(F)c3)n2)cn1 [Compound 158]", "5.00 to 6.00"],
  ["CN(C)C(=O)[C@@H](Nc1nc(Nc2cnn(C)c2)ncc1Cl)c1ccccc1 [Compound 25]", "5.00 to 6.00"],
  ["Cn1cc(-c2cc(F)cc([C@@H](CO)Nc3nc(Nc4cnn(CCO)c4)ncc3Cl)c2)cn1 [Compound 152]", "6.00 to 7.00"]
]}

Next, consider the following molecule.
Query string: Param item = CCNC(=O)[C@@H](Nc1nc(Nc2cnn(C)c2)ncc1Cl)c1ccccc1 [Compound 28] ; retrieve measured pIC50.
Result string: 5.00 to 6.00

====

target: JAK2 (Homo sapiens); construct: endogenous in cells; host or cells: Molt4 (ATCC CRL-1582) and Ramos (ATCC CRL-1596), mixed lysate 1:2; assay: Kinobeads assay, JAK2; type: binding; conditions: mixed Molt4/Ramos lysate, read-out: Inhibition values (IC50) JAK2
Sequence (O60674 whole entry): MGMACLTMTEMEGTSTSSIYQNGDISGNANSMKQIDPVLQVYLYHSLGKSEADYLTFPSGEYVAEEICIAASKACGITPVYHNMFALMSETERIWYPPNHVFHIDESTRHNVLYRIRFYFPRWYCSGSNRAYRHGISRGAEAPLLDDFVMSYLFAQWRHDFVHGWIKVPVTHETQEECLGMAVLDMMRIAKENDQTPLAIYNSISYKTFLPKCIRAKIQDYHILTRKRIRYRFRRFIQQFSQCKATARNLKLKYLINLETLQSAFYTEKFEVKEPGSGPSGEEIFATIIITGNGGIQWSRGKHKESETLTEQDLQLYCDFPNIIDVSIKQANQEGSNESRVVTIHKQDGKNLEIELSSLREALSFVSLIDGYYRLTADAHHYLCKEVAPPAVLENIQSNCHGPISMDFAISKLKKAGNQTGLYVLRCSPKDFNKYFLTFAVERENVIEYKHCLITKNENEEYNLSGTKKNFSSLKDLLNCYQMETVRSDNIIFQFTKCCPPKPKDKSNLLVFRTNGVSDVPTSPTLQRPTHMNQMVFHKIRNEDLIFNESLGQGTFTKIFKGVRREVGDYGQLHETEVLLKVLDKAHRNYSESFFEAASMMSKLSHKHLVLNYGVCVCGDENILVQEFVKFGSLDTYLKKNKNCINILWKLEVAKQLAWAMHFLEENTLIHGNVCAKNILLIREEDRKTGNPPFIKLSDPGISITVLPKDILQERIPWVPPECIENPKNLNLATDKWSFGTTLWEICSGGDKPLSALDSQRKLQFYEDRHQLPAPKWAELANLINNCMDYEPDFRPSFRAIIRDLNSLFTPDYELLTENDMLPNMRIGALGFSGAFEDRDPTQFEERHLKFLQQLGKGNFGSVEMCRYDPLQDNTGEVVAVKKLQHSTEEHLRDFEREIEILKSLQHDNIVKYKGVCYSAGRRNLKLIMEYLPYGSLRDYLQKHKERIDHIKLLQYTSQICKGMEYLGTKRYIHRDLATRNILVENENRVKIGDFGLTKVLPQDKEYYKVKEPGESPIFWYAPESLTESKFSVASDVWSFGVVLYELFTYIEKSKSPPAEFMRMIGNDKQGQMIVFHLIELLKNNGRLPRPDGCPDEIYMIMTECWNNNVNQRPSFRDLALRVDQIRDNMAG
observable: IC50

Look over these answered cases.
{"columns": ["compound", "IC50"],
 "data": [
  ["Cn1cc(Nc2ncc(Cl)c(NC(CO)c3cccc(F)c3)n2)cn1 (stereo not shown)", "1 to 10 µM"],
  ["CNC(=O)Cn1cc(Nc2ncc(F)c(N[C@H](CO)c3cccc(-c4cnn(C)c4)c3)n2)cn1", "≥ 10 µM"],
  ["NC(=O)Cn1cc(Nc2ncc(Cl)c(N[C@H](CO)c3ccccn3)n2)cn1", "1 to 10 µM"]
]}

Next, consider the following compound.
Query string: Form field: IC50 recorded for `CC(C)OCCn1cc(Nc2ncc(Cl)c(N[C@H](CO)c3ccccc3)n2)cn1` with JAK2 (Homo sapiens) (enter value)
Result string: 1 to 10 µM

====

Below, each of the molecules is paired with its reported IC50 value.
biological target: JAK2 (Homo sapiens); construct: endogenous in cells; experiment: Kinobeads assay, JAK2; conditions: mixed Molt4/Ramos lysate, read-out: Inhibition values (IC50) JAK2

{"columns": ["molecule", "IC50"],
 "data": [
  ["Cn1cc(Nc2ncc(Cl)c(NC(CO)c3cccc(N4CC5(COC5)C4)c3)n2)cn1 (centres unmarked)", "≥ 10 µM"],
  ["OCCn1cc(Nc2ncc(Cl)c(N[C@H](CO)c3cccc(F)c3)n2)cn1", "0.1 to 1 µM"],
  ["Cn1cc(Nc2ncc(Cl)c(N[C@H](C(=O)NC3CCCC3)c3ccccc3)n2)cn1", "≥ 10 µM"]
]}

Query string: Param item = OCCn1cc(Nc2ncc(Cl)c(NC(CO)c3ccc(F)cc3)n2)cn1 (centres unmarked) ; retrieve measured IC50.
Result string: ≥ 10 µM

Query string: Param item = `Cn1cc(Nc2ncc(Cl)c(N[C@H](CO)c3cccc(-c4cnn(C)c4)c3)n2)cn1` ; retrieve measured IC50.
Result string: ≥ 10 µM

Query string: Param item = `O=C(O)Cn1cc(Nc2ncc(Cl)c(N[C@H](CO)c3ccccc3)n2)cn1` ; retrieve measured IC50.
Result string: ≥ 10 µM

Query string: Param item = `CCOC(=O)Cn1cc(Nc2ncc(Cl)c(N[C@H](CO)c3ccccc3)n2)cn1` ; retrieve measured IC50.
Result string: 1 to 10 µM

Query string: Param item = Cc1cnc(Nc2cnn(CC(F)F)c2)nc1NC(CO)c1c(F)cccc1F (centres unmarked) ; retrieve measured IC50.
Result string: ≥ 10 µM

====

Below, each of the molecules is paired with its reported pIC50 value.
molecular target: TYK2 (Homo sapiens); construct: endogenous in cells; assay: Kinobeads assay, TYK2; settings: mixed Molt4/Ramos lysate, read-out: Inhibition values (IC50) TYK2
Sequence (P29597 whole entry): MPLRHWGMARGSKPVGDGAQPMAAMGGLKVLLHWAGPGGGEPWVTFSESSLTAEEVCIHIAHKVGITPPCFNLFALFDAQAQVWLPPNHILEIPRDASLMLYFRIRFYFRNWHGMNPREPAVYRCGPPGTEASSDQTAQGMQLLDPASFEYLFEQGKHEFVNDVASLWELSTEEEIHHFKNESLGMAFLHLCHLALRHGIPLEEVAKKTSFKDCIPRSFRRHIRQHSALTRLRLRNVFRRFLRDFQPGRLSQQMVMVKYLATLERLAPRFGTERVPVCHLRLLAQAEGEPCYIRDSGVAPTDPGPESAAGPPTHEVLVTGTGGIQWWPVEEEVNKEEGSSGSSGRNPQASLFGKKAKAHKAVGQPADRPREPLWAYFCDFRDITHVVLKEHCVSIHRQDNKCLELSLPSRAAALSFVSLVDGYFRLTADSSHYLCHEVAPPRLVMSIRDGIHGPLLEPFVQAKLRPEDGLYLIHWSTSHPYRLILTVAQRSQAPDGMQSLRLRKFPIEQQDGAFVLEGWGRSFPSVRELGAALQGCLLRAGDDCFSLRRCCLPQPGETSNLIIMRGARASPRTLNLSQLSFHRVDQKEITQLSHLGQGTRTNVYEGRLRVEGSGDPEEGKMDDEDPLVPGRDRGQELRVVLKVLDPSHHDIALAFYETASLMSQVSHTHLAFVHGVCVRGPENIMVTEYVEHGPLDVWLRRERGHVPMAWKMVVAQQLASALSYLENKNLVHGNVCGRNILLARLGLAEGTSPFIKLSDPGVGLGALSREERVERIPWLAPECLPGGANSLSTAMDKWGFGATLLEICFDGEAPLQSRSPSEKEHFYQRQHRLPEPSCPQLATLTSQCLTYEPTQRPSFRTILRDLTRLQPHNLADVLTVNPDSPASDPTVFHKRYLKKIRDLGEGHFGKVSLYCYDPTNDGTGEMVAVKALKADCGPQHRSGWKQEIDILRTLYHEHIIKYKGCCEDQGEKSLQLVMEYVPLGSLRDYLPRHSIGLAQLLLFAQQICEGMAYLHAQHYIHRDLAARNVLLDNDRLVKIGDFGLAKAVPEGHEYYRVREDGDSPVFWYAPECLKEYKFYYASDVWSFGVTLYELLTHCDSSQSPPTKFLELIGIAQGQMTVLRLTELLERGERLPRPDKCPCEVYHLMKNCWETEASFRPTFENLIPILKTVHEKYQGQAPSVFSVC
pIC50: −log10 of the molar value.

Look over these answered cases.
{"columns": ["molecule", "experimental_result"],
 "data": [
  ["OCCCn1cc(Nc2ncc(Cl)c(NC(CO)c3ccccc3F)n2)cn1 (centres unmarked)", "5.00 to 6.00"],
  ["O=C(c1cc(Nc2ncc(Cl)c(N[C@H](CO)c3ccccc3)n2)c[nH]1)N1CCOCC1", "6.00 to 7.00"],
  ["CN(C)C(=O)Cn1cc(Nc2ncc(Cl)c(N[C@H](CO)c3ccccc3)n2)cn1", "6.00 to 7.00"],
  ["Cn1ccc(Nc2ncc(Cl)c(N[C@H](CO)c3ccccc3)n2)n1", "≤ 5.00"],
  ["OCCn1cc(Nc2ncc(Cl)c(NC(CO)c3c(F)cccc3F)n2)cn1 (centres unmarked)", "6.00 to 7.00"],
  ["Cn1cc(Nc2ncc(Cl)c(NC(C)(CO)c3ccccc3)n2)cn1 (centres unmarked)", "5.00 to 6.00"]
]}

Query string: Param item = `O=C([C@@H](Nc1nc(Nc2cnn(CCO)c2)ncc1Cl)c1ccccc1)N1CCCCC1` ; retrieve measured pIC50.
Result string: ≤ 5.00

Query string: Param item = `CC(C)OCCn1cc(Nc2ncc(Cl)c(N[C@H](CO)c3ccccc3)n2)cn1` ; retrieve measured pIC50.
Result string: 5.00 to 6.00

Query string: Param item = `NC(=O)Cn1cc(Nc2ncc(F)c(N[C@H](CO)c3cc(F)cc(F)c3)n2)cn1` ; retrieve measured pIC50.
Result string: 6.00 to 7.00

Query string: Param item = `Cn1cc(Nc2ncc(Cl)c(N[C@H](C(=O)N3CCCC3)c3ccccc3)n2)cn1` ; retrieve measured pIC50.
Result string: ≤ 5.00

Query string: Param item = `CNC(=O)Cn1cc(Nc2ncc(Cl)c(N[C@H](CO)c3ccccc3)n2)cn1` ; retrieve measured pIC50.
Result string: 5.00 to 6.00

Query string: Param item = `CNC(=O)Cn1cc(Nc2ncc(Cl)c(N[C@H](CO)c3cccnc3)n2)cn1` ; retrieve measured pIC50.
Result string: 5.00 to 6.00

Query string: Param item = CC(C)(O)Cn1cc(Nc2ncc(Cl)c(NC(CO)c3c(F)cccc3F)n2)cn1 (centres unmarked) ; retrieve measured pIC50.
Result string: 5.00 to 6.00

Query string: Param item = COC(=O)C(Nc1nc(Nc2cnn(C)c2)ncc1Cl)c1ccccc1 (centres unmarked) ; retrieve measured pIC50.
Result string: 5.00 to 6.00

Query string: Param item = `OCCn1cc(Nc2ncc(Cl)c(N[C@H](CO)c3cc(F)cc(F)c3)n2)cn1` ; retrieve measured pIC50.
Result string: 6.00 to 7.00

Query string: Param item = CNC(=O)Cn1cc(Nc2ncc(Cl)c(NC(CO)c3ccccc3C(F)(F)F)n2)cn1 (centres unmarked) ; retrieve measured pIC50.
Result string: 6.00 to 7.00

Query string: Param item = CC(O)Cn1cc(Nc2ncc(Cl)c(NC(CO)c3cccc(F)c3)n2)cn1 (centres unmarked) ; retrieve measured pIC50.
Result string: 5.00 to 6.00

====

Below, each of the compounds is paired with its reported pIC50 value.
Target: JAK3 (Homo sapiens)
Construct: endogenous in cells
Sequence (P52333 1-1124): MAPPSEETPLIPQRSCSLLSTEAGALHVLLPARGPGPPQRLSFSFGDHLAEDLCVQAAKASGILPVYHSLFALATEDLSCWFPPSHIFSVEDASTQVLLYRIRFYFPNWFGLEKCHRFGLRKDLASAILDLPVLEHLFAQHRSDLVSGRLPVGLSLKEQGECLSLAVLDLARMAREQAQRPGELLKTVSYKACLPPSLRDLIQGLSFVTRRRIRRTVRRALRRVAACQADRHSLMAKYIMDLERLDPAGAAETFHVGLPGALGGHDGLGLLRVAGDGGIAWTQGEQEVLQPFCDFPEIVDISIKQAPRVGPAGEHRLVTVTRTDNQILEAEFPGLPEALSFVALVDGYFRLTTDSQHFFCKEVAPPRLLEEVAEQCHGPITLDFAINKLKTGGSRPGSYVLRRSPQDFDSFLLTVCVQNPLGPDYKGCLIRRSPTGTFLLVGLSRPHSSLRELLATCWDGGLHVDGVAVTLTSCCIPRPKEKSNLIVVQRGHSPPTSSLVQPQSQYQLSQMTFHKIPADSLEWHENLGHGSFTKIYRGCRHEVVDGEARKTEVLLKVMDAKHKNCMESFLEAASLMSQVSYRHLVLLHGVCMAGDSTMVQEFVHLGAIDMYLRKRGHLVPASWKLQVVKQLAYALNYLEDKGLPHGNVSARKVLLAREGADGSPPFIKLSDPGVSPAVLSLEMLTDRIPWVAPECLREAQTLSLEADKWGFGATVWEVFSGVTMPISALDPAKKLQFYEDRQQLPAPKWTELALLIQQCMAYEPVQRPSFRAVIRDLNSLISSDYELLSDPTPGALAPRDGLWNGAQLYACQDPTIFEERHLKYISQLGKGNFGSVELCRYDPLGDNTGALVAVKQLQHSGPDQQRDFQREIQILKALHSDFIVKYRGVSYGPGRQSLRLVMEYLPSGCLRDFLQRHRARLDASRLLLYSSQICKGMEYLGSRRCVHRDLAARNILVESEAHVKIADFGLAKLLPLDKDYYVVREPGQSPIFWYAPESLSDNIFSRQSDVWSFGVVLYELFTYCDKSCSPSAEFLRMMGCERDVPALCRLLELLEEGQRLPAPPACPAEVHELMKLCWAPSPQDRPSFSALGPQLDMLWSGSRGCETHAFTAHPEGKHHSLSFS
Assay: Kinobeads assay, JAK3
Conditions: mixed Molt4/Ramos lysate, read-out: Inhibition values (IC50) JAK3
pIC50: −log10 of the molar value.

Look over these answered cases.
{"columns": ["compound", "pIC50"],
 "data": [
  ["Cn1cc(Nc2ncc(F)c(N[C@H](CO)c3cc(F)cc(-c4cnn(C)c4)c3)n2)cn1", "6.00 to 7.00"],
  ["Cn1cc(Nc2ncc(Cl)c(NC(CO)c3cc(F)cc(F)c3)n2)cn1 (centres unmarked)", "> 7.00"],
  ["NC(=O)Cn1cc(Nc2ncc(Cl)c(N[C@H](CO)c3cc(F)cc(F)c3)n2)cn1", "> 7.00"],
  ["Cn1cc(Nc2ncc(Cl)c(NC(C)(CO)c3ccccc3)n2)cn1 (centres unmarked)", "6.00 to 7.00"],
  ["Cc1cnc(Nc2cnn(C)c2)nc1N[C@H](CO)c1cccc(-c2cnn(C)c2)c1", "6.00 to 7.00"],
  ["NC(=O)Cn1cc(Nc2ncc(Cl)c(N[C@H](CO)c3ccccn3)n2)cn1", "> 7.00"],
  ["O=C(Cn1cc(Nc2ncc(Cl)c(N[C@H](CO)c3ccccc3F)n2)cn1)N1CCOCC1", "> 7.00"],
  ["OC[C@@H](Nc1nc(Nc2cnn(CC(F)F)c2)ncc1Cl)c1ccccc1F", "> 7.00"],
  ["CC(C)n1cc(Nc2ncc(Cl)c(N[C@H](CO)c3ccccc3F)n2)cn1", "> 7.00"],
  ["O=C(Cn1cc(Nc2ncc(F)c(N[C@H](CO)c3ccccc3)n2)cn1)N1CCOCC1", "> 7.00"]
]}

Query string: Form field: pIC50 recorded for CC(O)Cn1cc(Nc2ncc(Cl)c(NC(CO)c3cccc(F)c3)n2)cn1 (centres unmarked) with JAK3 (Homo sapiens) (enter value)
Result string: > 7.00

Query string: Form field: pIC50 recorded for `CNC(=O)Cn1cc(Nc2ncc(Cl)c(N[C@H](CO)c3cccnc3)n2)cn1` with JAK3 (Homo sapiens) (enter value)
Result string: > 7.00

Query string: Form field: pIC50 recorded for `NCCCn1cc(Nc2ncc(Cl)c(N[C@H](CO)c3ccccc3)n2)cn1` with JAK3 (Homo sapiens) (enter value)
Result string: > 7.00

Query string: Form field: pIC50 recorded for `O=C(O)Cn1cc(Nc2ncc(Cl)c(N[C@H](CO)c3ccccc3)n2)cn1` with JAK3 (Homo sapiens) (enter value)
Result string: > 7.00

Query string: Form field: pIC50 recorded for `CNC(=O)Cn1cc(Nc2ncc(Cl)c(N[C@H](CO)c3ccccc3F)n2)cn1` with JAK3 (Homo sapiens) (enter value)
Result string: > 7.00

Query string: Form field: pIC50 recorded for `Cn1cc(Nc2ncc(F)c(N[C@H](CO)c3cc(F)cc(F)c3)n2)cn1` with JAK3 (Homo sapiens) (enter value)
Result string: > 7.00

Query string: Form field: pIC50 recorded for `CC(C)OCCn1cc(Nc2ncc(Cl)c(N[C@H](CO)c3ccccc3)n2)cn1` with JAK3 (Homo sapiens) (enter value)
Result string: > 7.00

Origin of measurements: patent US20140179664A1
